All values here come from patent US5840918A.

Field: pIC50. Provide a value for each of the compounds that follow.
System: H-ras farnesylation in H-ras (61L) transformed NIH3T3 fibroblasts
assay comment: Inhibition of H-ras farnesylation in whole cells (Western blot)
Type: cell-based, mouse
test context: Mus musculus, NIH3T3, 24 h, Table 2
FYI, pIC50 means -log10 of a concentration in mol per litre.

The recorded pIC50 for entry COC(=O)[C@H](CCSC)NC(=O)C(Cc1cccs1)NC[C@@H](/C=C/C(N)CS)C(C)C (stereo partly shown) equals 7.60

The recorded pIC50 for entry CSCC[C@H](NC(=O)c1cc(C/C=C/C(N)CS)ccc1C)C(=O)O (stereo partly shown) equals 5.40

The recorded pIC50 for entry NC(C=CCc1ccc(-c2ccsc2)c(C(=O)NC(Cc2cccs2)C(=O)O)c1)CSSCC(N)C=CCc1ccc(-c2ccsc2)c(C(=O)NC(Cc2cccs2)C(=O)O)c1 (stereo not shown) equals 4.88

The recorded pIC50 for entry COc1ccccc1-c1ccc(C/C=C/C(N)CS)cc1C(=O)N[C@@H](CCSC)C(=O)O (stereo partly shown) equals 5.96

The recorded pIC50 for entry CC(C)[C@H](/C=C/C(N)CS)CN(C)C(Cc1cccs1)C(=O)N[C@@H](CCS(C)(=O)=O)C(=O)O (stereo partly shown) equals 6.24

The recorded pIC50 for entry COC(=O)[C@H](CCS(C)(=O)=O)NC(=O)C(Cc1ccccc1)OC[C@@H](/C=C/C(N)CS)C(C)C (stereo partly shown) equals 5.96
